- targetOrTestSystem: Coagulation factor X (Homo sapiens, UniProt P00742)
- Sequence (P00742 41-179 limits assumed): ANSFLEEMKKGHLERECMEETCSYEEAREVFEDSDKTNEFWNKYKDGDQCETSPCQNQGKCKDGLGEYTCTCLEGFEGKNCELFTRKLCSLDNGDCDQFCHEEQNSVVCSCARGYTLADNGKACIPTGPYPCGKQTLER
- Sequence (P00742 235-488 limits assumed): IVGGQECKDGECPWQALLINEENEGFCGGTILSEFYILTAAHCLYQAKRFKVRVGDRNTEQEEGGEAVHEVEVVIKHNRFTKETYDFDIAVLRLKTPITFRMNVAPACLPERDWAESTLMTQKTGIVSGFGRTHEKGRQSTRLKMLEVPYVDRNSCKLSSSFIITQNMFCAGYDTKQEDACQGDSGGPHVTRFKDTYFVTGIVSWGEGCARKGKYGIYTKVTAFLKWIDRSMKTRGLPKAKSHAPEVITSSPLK
- testMethodNotes: Inhibition of human factor 10a at 50 uM
Calls of active or inactive are those of the source. The calls are words filed in the database; no cut-off is given here.
parameter: Activity

Consider the reported Activity for these compounds:
smilesCode	Activity
Cc1ccc2oc(=O)c(C(=O)Oc3ccccc3)cc2c1	inactive
O=C(Nc1ccccc1)c1cc2cc(Br)ccc2oc1=O	inactive
Cc1ccc2oc(=O)c(C(=O)NCc3ccccc3)cc2c1	inactive
Cc1cccc(NC(=O)c2cc3cc(Cl)cc(Cl)c3oc2=O)c1	inactive
O=C(Nc1ccccc1)c1cc2cc(Cl)cc(Cl)c2oc1=O	inactive
Cc1cc(C)cc(NC(=O)c2cc3cc(C)ccc3oc2=O)c1	inactive
Cc1ccc2oc(=O)c(C(=O)Nc3cccc(Cl)c3)cc2c1	inactive
Cc1ccc2oc(=O)c(C(=O)NC3CCCCC3)cc2c1	inactive

Activity for Cc1ccc2oc(=O)c(C(=O)NCCc3ccccc3)cc2c1 ?
inactive

Activity for Cc1ccc2oc(=O)c(C(=O)Nc3ccccc3Cl)cc2c1 ?
inactive

Activity for Cc1ccc2oc(=O)c(C(=O)Nc3ccccc3)cc2c1 ?
inactive

Activity for Cc1ccc(NC(=O)c2cc3cc(C)ccc3oc2=O)cc1 ?
inactive

Activity for O=C(Nc1ccccc1)c1cc2ccccc2oc1=O ?
inactive

Activity for Cc1ccc2oc(=O)c(C(=O)NCc3cccc4ccccc34)cc2c1 ?
inactive

Activity for O=C(Nc1ccccc1)c1cc2cc(Cl)cc(Br)c2oc1=O ?
inactive

Activity for Cc1ccc2oc(=O)c(C(=O)NC3CCCCCCCCCCC3)cc2c1 ?
inactive

Activity for Cc1ccc2oc(=O)c(C(=O)NC(C)C)cc2c1 ?
inactive

Activity for O=C(Nc1ccccc1)c1cc2cc([N+](=O)[O-])ccc2oc1=O ?
inactive

Activity for COc1cc(Br)cc2cc(C(=O)Nc3ccccc3)c(=O)oc12 ?
inactive

Activity for Cc1ccc2oc(=O)c(C(=O)Nc3ccccc3C)cc2c1 ?
inactive

Activity for Cc1cccc(NC(=O)c2cc3cc(Cl)cc(Br)c3oc2=O)c1 ?
inactive

Activity for Cc1ccc2oc(=O)c(C(=O)NC34CC5CC(CC(C5)C3)C4)cc2c1 ?
inactive

Activity for CCN(CC)c1ccc2cc(C(=O)Nc3ccccc3)c(=O)oc2c1 ?
inactive

Activity for Cc1cccc(NC(=O)c2cc3cc(C)ccc3oc2=O)c1 ?
inactive
